Where do the numbers come from? From paper PMC5540273.

# experimentalTarget: FGFR3 (Homo sapiens)
# Sequence (P22607 23-806): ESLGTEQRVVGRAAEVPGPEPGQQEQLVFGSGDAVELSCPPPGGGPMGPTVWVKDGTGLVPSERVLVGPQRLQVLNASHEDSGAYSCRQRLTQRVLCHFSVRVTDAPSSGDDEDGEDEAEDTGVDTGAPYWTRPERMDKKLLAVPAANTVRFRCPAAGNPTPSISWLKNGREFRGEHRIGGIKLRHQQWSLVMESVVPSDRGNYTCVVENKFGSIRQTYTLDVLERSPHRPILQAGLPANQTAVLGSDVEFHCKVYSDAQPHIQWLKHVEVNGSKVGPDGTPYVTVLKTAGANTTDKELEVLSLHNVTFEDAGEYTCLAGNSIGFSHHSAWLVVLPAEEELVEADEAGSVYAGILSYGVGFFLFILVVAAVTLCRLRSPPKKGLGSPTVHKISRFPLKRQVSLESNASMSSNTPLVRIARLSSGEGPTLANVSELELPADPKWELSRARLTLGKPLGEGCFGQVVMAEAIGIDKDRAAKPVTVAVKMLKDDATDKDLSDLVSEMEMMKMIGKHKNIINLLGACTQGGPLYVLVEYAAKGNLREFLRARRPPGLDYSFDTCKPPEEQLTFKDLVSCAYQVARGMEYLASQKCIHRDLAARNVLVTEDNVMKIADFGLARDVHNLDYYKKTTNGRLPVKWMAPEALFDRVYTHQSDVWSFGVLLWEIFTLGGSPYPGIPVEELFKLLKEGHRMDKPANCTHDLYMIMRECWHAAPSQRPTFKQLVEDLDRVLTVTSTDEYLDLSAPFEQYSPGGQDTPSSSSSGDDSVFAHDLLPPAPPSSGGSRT
# assay: KINOMEscan competition binding
# conditionNotes: read-out: %Inh FGFR3
readoutType: inhibition at 1 µM
Answers without a unit are incomplete; give the number and then its unit.

INSERT INTO results (compound, valueobserved) VALUES
  ('CS(=O)(=O)Cc1ccc(Nc2nccc(-c3c(-c4cccc(NC(=O)C5CCCCC5)c4)nn4ncccc34)n2)cc1 [UNC10225159A]', '16%'),
  ('Cn1cc(-c2cnc(N)c3c(-c4ccc5c(c4)CCN5C(=O)Cc4ccccc4)csc23)cn1 [UNC10225012A]', '49%'),
  ('Cc1ccc(NC(=O)Nc2cccc(C(F)(F)F)c2)cc1 [UNC10225187A]', '5%'),
  ('COc1cccc(OC)c1C(=O)Nc1cccc(-c2nn3ccccc3c2-c2ccnc(Nc3cccc(F)c3)n2)c1 [UNC10225310A]', '0%');

Now look at this entry.
Which inhibition at 1 µM is listed for O=c1cc(N2CCOCC2)nc2n(Cc3cccc(Cl)c3Cl)c(C3CC3)nn12 [UNC10225469A] ?
0%
